Hello, the source for this data is PubChem BioAssay AID1645865, in case you need it.

# testedSystem: UniProt Q70CQ3
# Sequence (Q70CQ3 whole entry, looked up): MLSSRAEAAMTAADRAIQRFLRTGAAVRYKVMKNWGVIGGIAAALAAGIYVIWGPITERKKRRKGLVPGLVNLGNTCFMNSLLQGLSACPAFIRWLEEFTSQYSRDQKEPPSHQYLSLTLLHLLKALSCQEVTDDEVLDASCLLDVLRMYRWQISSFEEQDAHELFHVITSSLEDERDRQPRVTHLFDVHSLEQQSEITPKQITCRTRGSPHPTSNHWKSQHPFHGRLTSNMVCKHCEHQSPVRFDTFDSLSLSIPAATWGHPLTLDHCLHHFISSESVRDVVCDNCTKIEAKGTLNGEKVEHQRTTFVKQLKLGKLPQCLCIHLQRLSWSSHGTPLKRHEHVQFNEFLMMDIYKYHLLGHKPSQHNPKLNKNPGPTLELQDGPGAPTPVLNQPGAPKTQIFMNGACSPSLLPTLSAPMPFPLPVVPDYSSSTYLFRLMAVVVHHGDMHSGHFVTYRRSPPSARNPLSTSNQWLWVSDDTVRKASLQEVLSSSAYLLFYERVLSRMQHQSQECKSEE
# runDescription: inhibitors of ubiquitin-specific protease 30 deubiquitylating enzyme, concentration dependence, in vitro biochemical, validation of primary hits (AID 1645865)
# assayConditions: purified USP30, Ub-rhodamine cleavage, fluorescence, 2 h
Calls of active or inactive are those of the source.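 The calls were made as follows: active = maximal inhibition of the USP30 enzyme reaching 30% or more across the dose series; inactive = the rest.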
# output must be one of yes (1) = active, no (0) = inactive

## Task Outcome logged for `CCn1c(SCC(=O)c2c(N)n(CC(C)C)c(=O)n(C)c2=O)nnc1-c1ccccc1` in this assay:
## Result yes (1)

## Task Each compound tested received a call. Report the one for `CCn1cnc2ccc(C(=O)NC3CC3)cc2c1=O` .
## Result no (0)

## Task Answer briefly: the call reported for `Clc1cc2nc(N3CCN(c4ccccn4)CC3)c3nncn3c2cc1Cl` in this assay.
## Result yes (1)

## Task Answer briefly: the call reported for `CN(C)S(=O)(=O)c1ccc(C(=O)Nc2c(C#N)oc3ccccc23)cc1` in this assay.
## Result no (0)

## Task What was the test verdict on `COc1cccc2sc(N3CCN(c4nc5ccccc5s4)CC3)nc12` ?
## Result yes (1)

## Task Given `CC1=C(c2ccc(Cl)cc2)S(=O)(=O)NC1=NCC(=O)Nc1ccc(F)cc1` , state the outcome it received in this test.
## Result yes (1)

## Task For `CN1CCN(c2ncnc3c2oc2ccc(Cl)cc23)CC1` , what call appears in the results of this test?
## Result no (0)

## Task Name the outcome recorded for CC(=O)N1CCc2cc(S(=O)(=O)NC(Cc3ccccc3)C(=O)Nc3cccc(Cl)c3C)ccc21 (stereo not given) in the assay.
## Result yes (1)

## Task Which outcome was assigned to O=C1c2ccccc2NC2(C(=O)Nc3ccc(Br)cc32)N1c1ccccc1 (stereo not given) in this test?
## Result no (0)

## Task What did the test return for `COc1cc(-c2nc(C(N)=O)c3[nH]c(=O)n(-c4ccc(C)cc4)c3n2)cc(OC)c1OC` ?
## Result yes (1)
